tested on: Mycobacterium tuberculosis H37Rv; assay: In vitro assay for antimicrobial susceptibility (microplate Alamar blue, MIC); assay type: cell-based; details: Mycobacterium tuberculosis; M. tuberculosis H37Rv, 7H9 broth, Alamar blue; read-out: MIC (μg/mL) against H37Rv
Recorded MIC by entry
The figure you give is taken to be in µg/mL; do not add the unit.

mol: O=C(NC[C@H]1CN(c2cc(F)c(N3CC4CCC(C3)O4)c(F)c2)C(=O)O1)C1CCC1
studySystem: Mycobacterium tuberculosis H37Rv
valueReported: 0.53

mol: O=C(NC[C@H]1CN(c2ccc(N3CCCSCC3)c(F)c2)C(=O)O1)c1cccs1
studySystem: Mycobacterium tuberculosis H37Rv
valueReported: 0.5

Data request: MIC lookup needed for CCCCS(=O)(=O)NC[C@H]1CN(c2ccc(N3CCCSCCC3)c(F)c2)C(=O)O1 , thanks.
Data returned: 3.88

Data request: Return reported MIC; argument: CC(=O)NC[C@H]1CN(c2cc(F)c(N3CC4(COC4)C3)c(F)c2)C(=O)O1
Data returned: 0.2

Data request: Given the entry CCCC(=O)OC[C@H]1CN(c2ccc(N3CCCSCCC3)c(F)c2)C(=O)O1 , report its measured MIC.
Data returned: 0.125

Data request: Would you mind telling me what MIC value was observed for O=C1O[C@@H](Cn2ccnn2)CN1c1ccc(N2CCCSCCC2)c(F)c1 ?
Data returned: 0.3

Data request: So what does the record say about MIC for O=C1O[C@@H](Cn2ccnn2)CN1c1cc(F)c(N2CCCSCC2)c(F)c1 ?
Data returned: 0.124

Data request: What value of MIC has been reported for the following compound? COC(=O)NC[C@H]1CN(c2ccc(N3CC4CCC(C3)O4)c(F)c2)C(=O)O1
Data returned: 0.49

Data request: Consider the compound O=C1O[C@@H](Cn2cncn2)CN1c1ccc(N2CCCSCC2)c(F)c1 and give its measured MIC.
Data returned: 0.456

Data request: Need MIC of CS(=O)(=O)NC[C@H]1CN(c2cc(F)c(N3CC4(C3)C[S+]([O-])C4)c(F)c2)C(=O)O1 , thanks.
Data returned: 3

====

tested on: mitochondrial protein synthesis (MPS) in H9C2 cells; experiment: In vitro assay for MPS inhibition (COX-1 / SDH-A ELISA in H9C2 cells); type: cell-based, rat; conditions: Rattus norvegicus, H9c2, 120 h, read-out: IC50 (μM) MPS inhibition
measuredMetric: IC50 (µM)
Provide only the numeric value, understood in µM.

Example results:
compound: O=C1O[C@@H](Cn2ccnn2)CN1c1cc(F)c(N2C3CCC2COC3)c(F)c1
IC50 (µM): 15
//
compound: COC(=O)NC[C@H]1CN(c2ccc(N3C4CCC3C[S+]([O-])C4)c(F)c2)C(=O)O1 (stereo partly shown)
IC50 (µM): 73
//
compound: COC(=O)NC[C@H]1CN(c2cc(F)c(N3C4CCC3COC4)c(F)c2)C(=O)O1
IC50 (µM): 13

Data request: // IC50 lookup, key: CC(=O)NC[C@H]1CN(c2cc(F)c(N3[C@@H]4CC[C@H]3C[S+]([O-])C4)c(F)c2)C(=O)O1 (stereo partly shown)
Data returned: 25

Data request: May I ask what IC50 has been recorded for O=C(NC[C@H]1CN(c2cc(F)c(N3[C@@H]4CC[C@H]3CSC4)c(F)c2)C(=O)O1)C1CCC1 ?
Data returned: 5

Data request: Need IC50, item CC(=O)NC[C@H]1CN(c2cc(F)c(N3C4CCC3COC4)c(F)c2)C(=O)O1
Data returned: 6

Data request: Name the reported IC50 value associated with the compound O=C(NC[C@H]1CN(c2cc(F)c(N3[C@@H]4CC[C@H]3CSC4)c(F)c2)C(=O)O1)C1CC1
Data returned: 8

Data request: Param item = CC(=O)NC[C@H]1CN(c2ccc(N3[C@@H]4CC[C@H]3CSC4)c(F)c2)C(=O)O1 ; retrieve measured IC50.
Data returned: 13.6
